Reported EC50 values are given for each entry in this list.
# target: Free fatty acid receptor 1 (Homo sapiens)
# Sequence (O14842 whole entry): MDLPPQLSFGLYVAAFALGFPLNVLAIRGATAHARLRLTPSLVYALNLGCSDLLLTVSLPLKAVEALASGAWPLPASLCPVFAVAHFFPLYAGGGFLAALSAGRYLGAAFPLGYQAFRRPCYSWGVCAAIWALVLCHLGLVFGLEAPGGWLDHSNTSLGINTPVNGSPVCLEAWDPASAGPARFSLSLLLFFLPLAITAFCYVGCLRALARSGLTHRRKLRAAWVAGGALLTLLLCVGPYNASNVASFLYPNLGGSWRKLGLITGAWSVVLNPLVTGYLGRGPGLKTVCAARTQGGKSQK
# protocol details: Agonist activity at human GP40 receptor expressed in CHO cells assessed as increase in intracellular calcium level for 90 secs by FLIPR assay in the presence of 0.1% BSA
property label: EC50 (nM)

>  <compound>
Cc1cc(OCC2(C)COC2)cc(C)c1-c1cccc(COc2ccc3c(c2)OC[C@@H]3CC(=O)O)c1

>  <property label>
EC50

>  <value>
270

$$$$
>  <compound>
Cc1cc(OC2CCS(=O)(=O)CC2)c(F)c(C)c1-c1cccc(COc2ccc3c(c2)OC[C@H]3CC(=O)O)c1

>  <property label>
EC50

>  <value>
19

$$$$
>  <compound>
Cc1nc(C)c(COc2cc(C)c(-c3cccc(COc4ccc5c(c4)OC[C@H]5CC(=O)O)c3)c(C)c2)s1

>  <property label>
EC50

>  <value>
18

$$$$
>  <compound>
Cc1cc(OCCCS(C)(=O)=O)c(F)c(C)c1-c1cccc(COc2ccc3c(c2)OC[C@H]3CC(=O)O)c1

>  <property label>
EC50

>  <value>
16

$$$$
>  <compound>
Cc1cc(OCC2(C)COC2)cc(C)c1-c1cccc(COc2ccc3c(c2)OCC3CC(=O)O)c1 (racemic)

>  <property label>
EC50

>  <value>
24

$$$$
>  <compound>
Cc1cc(OC2CCS(=O)(=O)CC2)cc(C)c1-c1cccc(COc2ccc3c(c2)OC[C@H]3CC(=O)O)c1

>  <property label>
EC50

>  <value>
22

$$$$
>  <compound>
Cc1cc(OCC2(O)CCS(=O)(=O)CC2)cc(C)c1-c1cccc(COc2ccc3c(c2)OC[C@H]3CC(=O)O)c1

>  <property label>
EC50

>  <value>
13

$$$$
>  <compound>
Cc1cc(OCCCN2CCCC2=O)cc(C)c1-c1cccc(COc2ccc3c(c2)OC[C@H]3CC(=O)O)c1

>  <property label>
EC50

>  <value>
17

$$$$
>  <compound>
Cc1c(Cl)c(OCCCS(C)(=O)=O)c(Cl)c(C)c1-c1cccc(COc2ccc3c(c2)OC[C@H]3CC(=O)O)c1

>  <property label>
EC50

>  <value>
17

$$$$
>  <compound>
Cc1cc(OCc2cccc3nccn23)cc(C)c1-c1cccc(COc2ccc3c(c2)OC[C@H]3CC(=O)O)c1

>  <property label>
EC50

>  <value>
17

$$$$
>  <compound>
Cc1cc(OCCCS(C)(=O)=O)c(Cl)c(C)c1-c1cccc(COc2ccc3c(c2)OC[C@H]3CC(=O)O)c1

>  <property label>
EC50

>  <value>
16

$$$$
>  <compound>
Cc1cc(OC2CCN(C)CC2)cc(C)c1-c1cccc(COc2ccc3c(c2)OC[C@H]3CC(=O)O)c1.Cl

>  <property label>
EC50

>  <value>
19

$$$$
>  <compound>
Cc1cc(OCC2(C)COC2)cc(C)c1-c1cccc(COc2ccc3c(c2)OC[C@H]3CC(=O)O)c1

>  <property label>
EC50

>  <value>
18

$$$$
>  <compound>
CCS(=O)(=O)CCOc1cc(C)c(-c2cccc(COc3ccc4c(c3)OC[C@H]4CC(=O)O)c2)c(C)c1

>  <property label>
EC50

>  <value>
14

$$$$
>  <compound>
Cc1cc(OC2CCS(=O)(=O)CC2)cc(C)c1-c1cccc(COc2ccc3c(c2)OCC3CC(=O)O)c1 (racemic)

>  <property label>
EC50

>  <value>
39

$$$$
>  <compound>
Cc1c(C)c(-c2cccc(COc3ccc4c(c3)OC[C@H]4CC(=O)O)c2)c(C)c(C)c1OCCCS(C)(=O)=O

>  <property label>
EC50

>  <value>
18

$$$$
>  <compound>
Cc1cc(OC2CCS(=O)(=O)CC2)cc(C)c1-c1cccc(COc2ccc3c(c2)OC[C@@H]3CC(=O)O)c1

>  <property label>
EC50

>  <value>
290

$$$$
>  <compound>
Cc1c(C)c(-c2cccc(COc3ccc4c(c3)OC[C@H]4CC(=O)O)c2)c(C)c(C)c1OC1CCS(=O)(=O)CC1

>  <property label>
EC50

>  <value>
29

$$$$
>  <compound>
CCc1cc(OCCCS(C)(=O)=O)cc(CC)c1-c1cccc(COc2ccc3c(c2)OC[C@H]3CC(=O)O)c1

>  <property label>
EC50

>  <value>
17

$$$$
